Numbers sourced from patent US20210024639A1.

molecular target: native mouse MET on living mouse cells (mouse, UniProt P16056 25-1379); assay: cell-based or functional assay
Endpoint: cell scattering score, MLP29, 0.012 nM (score 0-4)
Report only the number, with the unit score 0-4 understood.

Binder: chimeric llama-human IgG1 mAb 72F8 (antibody, V domains shown) VH: ELQLVESGGGLVQPGGSLRLSCAASGFTFSNYVMSWVRQAPGKGLEWVSDTNSGGSTSYADSVKGRFTISRDNAKNTLYLQMNSLKPEDTALYYCARSFFYGMNYWGKGTQVTVSS VL: QSALTQPPSLSASPGSSVRLTCTLSSGNNIGSYDISWYQQKAGSPPRYLLNYYTDSRKHQDSGVPSRFSGSKDASANAGLLLISGLQPEDEADYYCSAYKSGSYRWVFGGGTHVTVL
Measurement units: score 0-4
cell scattering score, MLP29, 0.012 nM: 0

cell scattering score, MLP29, 0.012 nM measured on chimeric llama-human IgG1 mAb 71G12 (antibody, V domains shown) VH: QVQLQESGGDLVQPGGSLRVSCVVSGFTFSRYYMSWVRQAPGKGLEWVSSIDSYGYSTYYTDSVKGRFTISRDNAKNTLYLQMNSLKPEDTALYYCARAKTTWSYDYWGQGTQVTVSS VL: EIVLTQSPSSVTASVGGKVTINCKSSQSVFIASNQKTYLNWYQQRPGQSPRLVISYASTRESGIPDRFSGSGSTTDFTLTISSVQPEDAAVYYCQQAYSHPTFGQGTKVELK = 0

So for chimeric llama-human IgG1 mAb 71G2 (antibody, V domains shown) VH: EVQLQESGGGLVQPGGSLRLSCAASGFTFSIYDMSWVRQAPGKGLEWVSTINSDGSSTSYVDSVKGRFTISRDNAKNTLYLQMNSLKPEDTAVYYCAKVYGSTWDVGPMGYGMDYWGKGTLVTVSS VL: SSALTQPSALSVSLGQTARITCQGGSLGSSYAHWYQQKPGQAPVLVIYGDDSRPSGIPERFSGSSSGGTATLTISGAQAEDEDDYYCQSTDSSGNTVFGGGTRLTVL , the logged cell scattering score, MLP29, 0.012 nM turned out to be 1

Looking up chimeric llama-human IgG1 mAb 71A3 (antibody, V domains shown) VH: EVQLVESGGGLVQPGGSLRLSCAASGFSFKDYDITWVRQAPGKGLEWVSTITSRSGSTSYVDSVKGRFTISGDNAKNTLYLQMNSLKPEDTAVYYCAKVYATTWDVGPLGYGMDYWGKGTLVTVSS VL: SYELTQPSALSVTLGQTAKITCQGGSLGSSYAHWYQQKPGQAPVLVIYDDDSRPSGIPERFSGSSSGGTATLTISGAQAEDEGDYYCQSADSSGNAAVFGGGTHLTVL , I found its cell scattering score, MLP29, 0.012 nM recorded as 2

// cell scattering score, MLP29, 0.012 nM lookup, binder = chimeric llama-human IgG1 mAb 76G7 (antibody, V domains shown) VH: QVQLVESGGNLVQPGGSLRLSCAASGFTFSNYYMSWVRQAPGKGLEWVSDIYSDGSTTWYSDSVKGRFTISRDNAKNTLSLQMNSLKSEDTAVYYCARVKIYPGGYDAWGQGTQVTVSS VL: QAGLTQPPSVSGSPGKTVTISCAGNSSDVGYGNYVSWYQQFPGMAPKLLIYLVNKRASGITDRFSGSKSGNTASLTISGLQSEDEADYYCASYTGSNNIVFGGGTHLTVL , result: 0
